Hi there, I'd appreciate the recorded IC50 for every entry that follows.
# measurement target: CMV-polymerase (Human cytomegalovirus (strain AD169) (HHV-5) (Human herpesvirus 5))
# protocol notes: biochemical
# reported conditions: CMV-polymerase Biochemical IC50
The figure you give is taken to be in nM; do not add the unit.

GET /values?readout=IC50&item= Cn1nc(C(=O)NCc2ccc(C#N)cc2)c2c1C(=O)N(CC1(S(=O)(=O)C(C)(C)C#N)CC1)CC2 1

GET /values?readout=IC50&item= Cn1nc(C(=O)NCc2ccc(C#N)cc2)c2c1C(=O)N(CC1(S(=O)(=O)[C@H]3C[C@H](O)C3)CC1)CC2 3

GET /values?readout=IC50&item= CC1(C)C(=O)NCCOCCn2nc(C(=O)NCc3ccc(C#N)cc3)c3c2C(=O)N(CC3)CC2(CC2)S1(=O)=O 13

GET /values?readout=IC50&item= Cn1nc(C(=O)NCc2ccc(C#N)cc2)c2c1C(=O)N(CC1(S(=O)(=O)C(C)(C)CN3CC(F)C3)CC1)CC2 2

GET /values?readout=IC50&item= Cn1nc(C(=O)NCc2ccc(C#N)cc2)c2c1C(=O)N(CC1(S(=O)(=O)C(C)(C)COC3CNC3)CC1)CC2 5

GET /values?readout=IC50&item= CC(O)COCC(C)(C)S(=O)(=O)C1(CN2CCc3c(C(=O)NCc4ccc(C#N)cc4)nn(C)c3C2=O)CC1 (single isomer, unassigned) [Example 90] 7

GET /values?readout=IC50&item= CS(=O)(=O)C1(CN2CCc3c(C(=O)NCc4ccc(C#N)cc4)nn(CC4(CO)CC4)c3C2=O)CC1 11
